Tested on: 874868-142-R-J2-PDC complex spheroids, growth % test/control
Assay: Anticancer human tumor 874868-142-R-J2-PDC patient-derived head and neck squamous carcinoma cell line growth inhibition [CLK]
Conditions: second compound 0.1 µM; first compound 1 µM; hits give low values
Threshold 70%: viability, T/C strictly smaller gives yes, otherwise no.

{"compound": "COc1ccc([C@@H](O)c2cc(-c3ncnc4cc(N5CCOCC5)ccc34)c(F)cc2Cl)nn1 + CNC(=O)c1ccc(Nc2nc(OC3CCCC3)c3c(-c4ccc5nc(C)oc5c4)c[nH]c3n2)c(OC)c1", "tested_system": "874868-142-R-J2-PDC complex spheroids, growth % test/control", "group": "yes"}
{"compound": "Nc1ccccc1NC(=O)c1ccc(CNC(=O)OCc2cccnc2)cc1 + CNC(=O)c1ccc(Nc2nc(OC3CCCC3)c3c(-c4ccc5nc(C)oc5c4)c[nH]c3n2)c(OC)c1", "tested_system": "874868-142-R-J2-PDC complex spheroids, growth % test/control", "group": "no"}
{"compound": "C=CC(=O)N1CCN(c2nc(=O)n(-c3c(C)ccnc3C(C)C)c3nc(-c4c(O)cccc4F)c(F)cc23)C(C)C1 (stereo unspecified) + CNC(=O)c1ccc(Nc2nc(OC3CCCC3)c3c(-c4ccc5nc(C)oc5c4)c[nH]c3n2)c(OC)c1", "tested_system": "874868-142-R-J2-PDC complex spheroids, growth % test/control", "group": "no"}
{"compound": "COc1ccc([C@@H](O)c2cc(-c3ncnc4cc(N5CCOCC5)ccc34)c(F)cc2Cl)nn1 + CN1CCN(c2cc(C(=O)Nc3cc4cc(-c5cnn(C)c5)ccc4cn3)ccn2)CC1", "tested_system": "874868-142-R-J2-PDC complex spheroids, growth % test/control", "group": "yes"}
{"compound": "CC1(C)CCC(CN2CCN(c3ccc(C(=O)NS(=O)(=O)c4ccc(NCC5CCOCC5)c([N+](=O)[O-])c4)c(Oc4cnc5[nH]ccc5c4)c3)CC2)=C(c2ccc(Cl)cc2)C1 + CNC(=O)c1ccc(Nc2nc(OC3CCCC3)c3c(-c4ccc5nc(C)oc5c4)c[nH]c3n2)c(OC)c1", "tested_system": "874868-142-R-J2-PDC complex spheroids, growth % test/control", "group": "no"}
{"compound": "CC1COCCN1c1cc(C2(S(C)(=N)=O)CC2)nc(-c2ccnc3[nH]ccc23)n1 (stereo unspecified) + CNC(=O)c1ccc(Nc2nc(OC3CCCC3)c3c(-c4ccc5nc(C)oc5c4)c[nH]c3n2)c(OC)c1", "tested_system": "874868-142-R-J2-PDC complex spheroids, growth % test/control", "group": "yes"}

---

# key: entry, value: viability, T/C
System: 874868-142-R-J2-PDC complex spheroids, growth % test/control
Assay: Anticancer human tumor 874868-142-R-J2-PDC cell line growth inhibition [CLK];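 further: spheroids exposed to the compounds for 7 days; 100% = DMSO vehicle control viability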
Settings: second compound 1 µM; first compound 0.316 µM; hits give low values
experimental_endpoint: viability, T/C (%)

{"compound": "O=C(c1cc(Cc2n[nH]c(=O)c3ccccc23)ccc1F)N1CCN(C(=O)C2CC2)CC1 + CN1CCN(c2cc(C(=O)Nc3cc4cc(-c5cnn(C)c5)ccc4cn3)ccn2)CC1", "experimental_endpoint": "viability, T/C", "assay_result": 0.36}
{"compound": "Nc1ccn(C2OC(CO)C(O)C2(F)F)c(=O)n1 (stereo not given) + CN1CCN(c2cc(C(=O)Nc3cc4cc(-c5cnn(C)c5)ccc4cn3)ccn2)CC1", "experimental_endpoint": "viability, T/C", "assay_result": 0.33}
{"compound": "CC(Nc1ccc2c(c1)OCCn1cc(N3C(=O)OCC3C(F)F)nc1-2)C(N)=O (stereo not given) + CN1CCN(c2cc(C(=O)Nc3cc4cc(-c5cnn(C)c5)ccc4cn3)ccn2)CC1", "experimental_endpoint": "viability, T/C", "assay_result": 1.32}
{"compound": "O=C(c1cc(Cc2n[nH]c(=O)c3ccccc23)ccc1F)N1CCN(C(=O)C2CC2)CC1 + CNC(=O)c1ccc(Nc2nc(OC3CCCC3)c3c(-c4ccc5nc(C)oc5c4)c[nH]c3n2)c(OC)c1", "experimental_endpoint": "viability, T/C", "assay_result": 42.3}
{"compound": "CCc1c2c(nc3ccc(O)cc13)-c1cc3c(c(=O)n1C2)COC(=O)[C@]3(O)CC + CNC(=O)c1ccc(Nc2nc(OC3CCCC3)c3c(-c4ccc5nc(C)oc5c4)c[nH]c3n2)c(OC)c1", "experimental_endpoint": "viability, T/C", "assay_result": 7.96}
